Quick reference: inhibition at 100 µM of the listed items.
Molecular target: smooth muscle myosin S1 (Gallus gallus, UniProt P10587)
Construct: purchased Cytoskeleton #CS-MYS05
Sequence (P10587 84-789 limits assumed): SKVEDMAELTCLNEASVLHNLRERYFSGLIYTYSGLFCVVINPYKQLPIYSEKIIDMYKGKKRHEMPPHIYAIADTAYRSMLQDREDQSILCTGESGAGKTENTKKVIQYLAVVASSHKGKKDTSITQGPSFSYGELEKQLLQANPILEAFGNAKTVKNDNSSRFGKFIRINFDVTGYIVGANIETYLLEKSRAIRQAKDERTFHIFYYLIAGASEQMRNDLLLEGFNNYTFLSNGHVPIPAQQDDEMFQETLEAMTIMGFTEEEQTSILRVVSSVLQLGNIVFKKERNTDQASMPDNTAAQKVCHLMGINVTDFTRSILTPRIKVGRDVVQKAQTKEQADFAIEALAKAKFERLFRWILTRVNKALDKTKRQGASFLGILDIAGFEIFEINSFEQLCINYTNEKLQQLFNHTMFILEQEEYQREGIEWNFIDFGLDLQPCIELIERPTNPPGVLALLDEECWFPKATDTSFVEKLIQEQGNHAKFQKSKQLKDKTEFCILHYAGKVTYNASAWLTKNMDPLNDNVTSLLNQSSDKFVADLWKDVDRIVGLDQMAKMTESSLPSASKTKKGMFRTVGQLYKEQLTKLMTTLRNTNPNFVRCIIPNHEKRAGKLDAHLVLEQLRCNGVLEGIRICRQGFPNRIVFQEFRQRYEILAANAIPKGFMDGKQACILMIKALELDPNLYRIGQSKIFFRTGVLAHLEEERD
Sequence (P02607 whole entry partner): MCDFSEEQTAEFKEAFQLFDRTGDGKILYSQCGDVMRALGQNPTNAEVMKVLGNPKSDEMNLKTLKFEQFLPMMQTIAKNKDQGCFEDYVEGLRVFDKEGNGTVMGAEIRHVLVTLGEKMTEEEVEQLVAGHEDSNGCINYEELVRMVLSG
Experiment: Inhibition of hydrolysis of ATP by smooth muscle myosin S1 fragments
Type: biochemical
Conditions: 100 μM compound

[
  {
    "Molecule": "N#CC1(COc2ncc(-c3ccc(=O)n(Cc4ccc5c(c4)CCC5)n3)cn2)CC1",
    "inhibition at 100 µM": "16%"
  },
  {
    "Molecule": "O=c1ccc(-c2cnc(OCC(F)(F)F)nc2)nn1Cc1ccc2c(c1)CC1CC21 (single isomer, unassigned) [Compound 162]",
    "inhibition at 100 µM": "16%"
  },
  {
    "Molecule": "O=c1ccc(-c2cnc(O[C@H]3CCOC3)nc2)nn1Cc1ccc2c(c1)CCC2",
    "inhibition at 100 µM": "-3%"
  },
  {
    "Molecule": "O=c1ccc(-c2cnc(O[C@@H]3CCOC3)nc2)nn1Cc1ccc2c(c1)CCC2",
    "inhibition at 100 µM": "7%"
  }
]
